Values were extracted from ChEMBL document CHEMBL3822445.

- Measurement protocol: Antiproliferative activity against human Ovarian cancer LA#110 cells assessed as cell survival at 20 uM after 72 hrs by MTT assay relative to control
- Format: functional
- Experimental context: read-out: Survival
Hi! Could you tag entries with viability at 20 µM below 60% as Satisfied, and those at or above as Not satisfied? Much appreciated.

### Prompt viability at 20 µM strictly < 60% for this molecule? COc1cc2nc(N3CCCN(C)CC3)nc(NC3CCN(Cc4ccccc4)CC3)c2cc1OC
### Response Satisfied

### Prompt Dear reviewer, please state whether CCCCN1C(=O)[C@@H]2Cc3c([nH]c4ccccc34)CN2C1=O has viability at 20 µM strictly beneath 60%.
### Response Not satisfied

### Prompt Item C#CCN(C)Cc1ccccc1 [PARGYLINE] : viability at 20 µM beneath 60%, strictly?
### Response Not satisfied

### Prompt Report whether reported viability at 20 µM is lower than 60% (strictly) for Nc1nccc2c1ncn2[C@@H]1C=C(CO)[C@@H](O)[C@H]1O
### Response Satisfied

### Prompt Given the entry CCCCN1C(=O)[C@H]2Cc3c(n(CO)c4ccccc34)CN2C1=O , would its reported viability at 20 µM be below 60%?
### Response Satisfied

### Prompt Given CN1c2ccccc2C(=O)N2CCc3c([nH]c4ccccc34)[C@H]21 , is recorded viability at 20 µM strictly lower than 60%?
### Response Satisfied

###

- System: MCF7
- Measurement protocol: Inhibition of DNA methylation in human MCF7 cells assessed as decrease in 5-methylcytosine level by ELISA
- Format: cell-based
The source made the active and inactive calls. The calls are words filed in the database; no cut-off is given here.
Choose the fitting class; nothing outside active, inactive is accepted.

### Prompt Fill in: this test's call for CCCCN1C(=O)[C@@H]2Cc3c(n(CO)c4ccccc34)CN2C1=O is ___
### Response active

### Prompt Outcome? CN1c2ccccc2C(=O)N2CCc3c([nH]c4ccccc34)[C@H]21
### Response active

### Prompt What did this assay record as the result for CN1CCN(C(=O)[C@H]2Cc3c([nH]c4ccccc34)[C@@H]3N(C)c4ccccc4C(=O)N23)CC1 ?
### Response active

### Prompt // outcome(item) with item = CCCCN1C(=O)[C@@H]2Cc3c([nH]c4ccccc34)CN2C1=O
### Response active

### Prompt GET /call?item= CCCCN1C(=O)[C@H]2Cc3c([nH]c4ccccc34)CN2C1=O returns the recorded outcome of this test.
### Response active

### Prompt Test call for this compound, please: CCCCN1C(=O)[C@H]2Cc3c(n(CO)c4ccccc34)CN2C1=O
### Response active

### Prompt Per the records of this test, what outcome belongs to Cc1ccc(-c2cn3c(n2)sc2ccccc23)cc1 ?
### Response inactive

###

- Measurement protocol: Antiproliferative activity against human H460 cells after 48 to 72 hrs by MTT assay
- Format: functional, cell-based
- Experimental context: NCI-H460
pIC50: −log10 of the molar value.
Quantity: pIC50

Summary for this compound, CCCCN1C(=O)[C@H]2Cc3c([nH]c4ccccc34)CN2C1=O : pIC50 is < 4.70

CN1c2ccccc2C(=O)N2CCc3c([nH]c4ccccc34)[C@H]21 yielded pIC50 of 6.59

The compound listed as CCCCN1C(=O)[C@@H]2Cc3c(n(CO)c4ccccc34)CN2C1=O has a reported pIC50 of < 4.70

Just so you know, measured pIC50 for CCCCN1C(=O)[C@@H]2Cc3c([nH]c4ccccc34)CN2C1=O came out at < 4.70

Field pIC50 (entry CCCCN1C(=O)[C@H]2Cc3c(n(CO)c4ccccc34)CN2C1=O ) reads < 4.70

pIC50 reading for Cc1ccc(-c2cn3c(n2)sc2ccccc23)cc1 : < 4.70

Lab book: pIC50 of CN1CCN(C(=O)[C@H]2Cc3c([nH]c4ccccc34)[C@@H]3N(C)c4ccccc4C(=O)N23)CC1 noted as 5.04
